Tested on: Amaranthus
Assay: Post-emergence test/greenhouse
Type: in vivo
Conditions: 504 h, 125 g of a.i./ha, after three weeks, read-out: degree of damage, Amaranthus

[
  {
    "compound": "CCCn1ccs/c1=N\\S(=O)(=O)NC(=O)n1nc(OCC)n(CC)c1=O [Example 49]",
    "pest or weed control at 125 g/ha, %": 100
  },
  {
    "compound": "CCCn1ccs/c1=N\\S(=O)(=O)NC(=O)n1nc(C2CC2)n(C)c1=O [Example 41]",
    "pest or weed control at 125 g/ha, %": 90
  },
  {
    "compound": "CCCn1ccs/c1=N\\S(=O)(=O)NC(=O)n1nc(OCC2CC2)n(C)c1=O [Example 48]",
    "pest or weed control at 125 g/ha, %": 95
  },
  {
    "compound": "CCCn1ccs/c1=N\\S(=O)(=O)NC(=O)n1nc(OC2CC2)n(C2CC2)c1=O [Example 34]",
    "pest or weed control at 125 g/ha, %": 100
  },
  {
    "compound": "CCCn1ccs/c1=N\\S(=O)(=O)NC(=O)n1nc(OC(C)C)n(C2CC2)c1=O [Example 33]",
    "pest or weed control at 125 g/ha, %": 100
  },
  {
    "compound": "CCCc1nn(C(=O)NS(=O)(=O)/N=c2\\sccn2CCC)c(=O)n1C1CC1 [Example 55]",
    "pest or weed control at 125 g/ha, %": 100
  }
]
